Please go through the items and note down their Reduction.
test system: Mus musculus; assay: Compound was administered at 62.5 p.p.m. in the diet of mice, for percent reduction of Nematospiroides dubius in mice; format: functional
Answers are plain numbers, in %.

{"columns": ["COMPOUND", "SYSTEM_NAME", "Reduction, %"],
 "data": [
  ["CCCOc1ccc2nc(NC(=O)OC)cn2c1", "Mus musculus", 0]
]}

Provide Reduction for all items below, preserving their order.
1. CC(C)OC(=O)Nc1ccc2[nH]c(-c3cscn3)nc2c1 [CAMBENDAZOLE]
2. COC(=O)Nc1nc2cc(C(Cl)=C(Cl)Cl)ccc2[nH]1
3. CCCSc1ccc2nc(NC(=O)OC)cn2c1
4. COC(=O)Nc1cn2cc(C(Cl)=C(Cl)Cl)ccc2n1
5. COC(=O)Nc1cn2cc([S+]([O-])c3ccccc3)ccc2n1 (configuration not stated)
6. COC(=O)Nc1cn2cc(Sc3ccccc3)ccc2n1

1: 0; 2: 57; 3: 0; 4: 94; 5: 35; 6: 0

###

test system: Mus musculus; test: Compound was administered at 250 p.p.m. in the diet of mice, for percent reduction of Nematospiroides dubius in mice; format: functional
Could you please report measured Reduction for the items listed next?
Give bare numbers, in %.

{"columns": ["COMPOUND", "PROPERTY_LABEL", "VALUE_OBSERVED"],
 "data": [
  ["COC(=O)Nc1nc2cc(C(Cl)=C(Cl)Cl)ccc2[nH]1", "Reduction", 99],
  ["COC(=O)Nc1cn2cc(Sc3ccccc3)ccc2n1", "Reduction", 98],
  ["CCCOc1ccc2nc(NC(=O)OC)cn2c1", "Reduction", 74],
  ["CCCSc1ccc2nc(NC(=O)OC)cn2c1", "Reduction", 100],
  ["c1ccc2[nH]c(-c3cscn3)nc2c1 [THIABENDAZOLE]", "Reduction", 26]
]}

API: the following record is the query input.
Please give measured Reduction of the following entry: CC(C)OC(=O)Nc1ccc2[nH]c(-c3cscn3)nc2c1 [CAMBENDAZOLE]
73

###

test system: Mus musculus; test: Compound was administered at 125 p.p.m. in the diet of mice, for percent reduction of Nematospiroides dubius in mice; type: functional
Label Yes when Reduction is at or above 70%; otherwise label No.

Example entries begin here.
{"columns": ["COMPOUND", "DISCRETE_LABEL"],
 "data": [
  ["CCCSc1ccc2nc(NC(=O)OC)cn2c1", "Yes"],
  ["COC(=O)Nc1cn2cc([S+]([O-])c3ccccc3)ccc2n1 (stereo not drawn)", "Yes"],
  ["COC(=O)Nc1cn2cc(C(Cl)=C(Cl)Cl)ccc2n1", "Yes"]
]}

Is Reduction for `COC(=O)Nc1cn2cc(Sc3ccccc3)ccc2n1` at or above 70%?
No

Quick check, Reduction >= 70%? c1ccc2[nH]c(-c3cscn3)nc2c1 [THIABENDAZOLE]
No

Say whether `CCCOc1ccc2nc(NC(=O)OC)cn2c1` shows Reduction of 70% or more.
No

Textbook exercise: given the entry CC(C)OC(=O)Nc1ccc2[nH]c(-c3cscn3)nc2c1 [CAMBENDAZOLE] , state whether its Reduction is greater than or equal to 70%.
No
